target: Neurogenic locus notch homolog protein 2 (Homo sapiens) (UniProt Q04721); assay: Notch2 binders on small-molecule microarrays, primary screen, biochemical, small-molecule microarray, 635 nm fluorescence, stem cell growth factors (AID 1073); details: Notch2 binding, higher = more signal
Sequence (Q04721 whole entry, looked up): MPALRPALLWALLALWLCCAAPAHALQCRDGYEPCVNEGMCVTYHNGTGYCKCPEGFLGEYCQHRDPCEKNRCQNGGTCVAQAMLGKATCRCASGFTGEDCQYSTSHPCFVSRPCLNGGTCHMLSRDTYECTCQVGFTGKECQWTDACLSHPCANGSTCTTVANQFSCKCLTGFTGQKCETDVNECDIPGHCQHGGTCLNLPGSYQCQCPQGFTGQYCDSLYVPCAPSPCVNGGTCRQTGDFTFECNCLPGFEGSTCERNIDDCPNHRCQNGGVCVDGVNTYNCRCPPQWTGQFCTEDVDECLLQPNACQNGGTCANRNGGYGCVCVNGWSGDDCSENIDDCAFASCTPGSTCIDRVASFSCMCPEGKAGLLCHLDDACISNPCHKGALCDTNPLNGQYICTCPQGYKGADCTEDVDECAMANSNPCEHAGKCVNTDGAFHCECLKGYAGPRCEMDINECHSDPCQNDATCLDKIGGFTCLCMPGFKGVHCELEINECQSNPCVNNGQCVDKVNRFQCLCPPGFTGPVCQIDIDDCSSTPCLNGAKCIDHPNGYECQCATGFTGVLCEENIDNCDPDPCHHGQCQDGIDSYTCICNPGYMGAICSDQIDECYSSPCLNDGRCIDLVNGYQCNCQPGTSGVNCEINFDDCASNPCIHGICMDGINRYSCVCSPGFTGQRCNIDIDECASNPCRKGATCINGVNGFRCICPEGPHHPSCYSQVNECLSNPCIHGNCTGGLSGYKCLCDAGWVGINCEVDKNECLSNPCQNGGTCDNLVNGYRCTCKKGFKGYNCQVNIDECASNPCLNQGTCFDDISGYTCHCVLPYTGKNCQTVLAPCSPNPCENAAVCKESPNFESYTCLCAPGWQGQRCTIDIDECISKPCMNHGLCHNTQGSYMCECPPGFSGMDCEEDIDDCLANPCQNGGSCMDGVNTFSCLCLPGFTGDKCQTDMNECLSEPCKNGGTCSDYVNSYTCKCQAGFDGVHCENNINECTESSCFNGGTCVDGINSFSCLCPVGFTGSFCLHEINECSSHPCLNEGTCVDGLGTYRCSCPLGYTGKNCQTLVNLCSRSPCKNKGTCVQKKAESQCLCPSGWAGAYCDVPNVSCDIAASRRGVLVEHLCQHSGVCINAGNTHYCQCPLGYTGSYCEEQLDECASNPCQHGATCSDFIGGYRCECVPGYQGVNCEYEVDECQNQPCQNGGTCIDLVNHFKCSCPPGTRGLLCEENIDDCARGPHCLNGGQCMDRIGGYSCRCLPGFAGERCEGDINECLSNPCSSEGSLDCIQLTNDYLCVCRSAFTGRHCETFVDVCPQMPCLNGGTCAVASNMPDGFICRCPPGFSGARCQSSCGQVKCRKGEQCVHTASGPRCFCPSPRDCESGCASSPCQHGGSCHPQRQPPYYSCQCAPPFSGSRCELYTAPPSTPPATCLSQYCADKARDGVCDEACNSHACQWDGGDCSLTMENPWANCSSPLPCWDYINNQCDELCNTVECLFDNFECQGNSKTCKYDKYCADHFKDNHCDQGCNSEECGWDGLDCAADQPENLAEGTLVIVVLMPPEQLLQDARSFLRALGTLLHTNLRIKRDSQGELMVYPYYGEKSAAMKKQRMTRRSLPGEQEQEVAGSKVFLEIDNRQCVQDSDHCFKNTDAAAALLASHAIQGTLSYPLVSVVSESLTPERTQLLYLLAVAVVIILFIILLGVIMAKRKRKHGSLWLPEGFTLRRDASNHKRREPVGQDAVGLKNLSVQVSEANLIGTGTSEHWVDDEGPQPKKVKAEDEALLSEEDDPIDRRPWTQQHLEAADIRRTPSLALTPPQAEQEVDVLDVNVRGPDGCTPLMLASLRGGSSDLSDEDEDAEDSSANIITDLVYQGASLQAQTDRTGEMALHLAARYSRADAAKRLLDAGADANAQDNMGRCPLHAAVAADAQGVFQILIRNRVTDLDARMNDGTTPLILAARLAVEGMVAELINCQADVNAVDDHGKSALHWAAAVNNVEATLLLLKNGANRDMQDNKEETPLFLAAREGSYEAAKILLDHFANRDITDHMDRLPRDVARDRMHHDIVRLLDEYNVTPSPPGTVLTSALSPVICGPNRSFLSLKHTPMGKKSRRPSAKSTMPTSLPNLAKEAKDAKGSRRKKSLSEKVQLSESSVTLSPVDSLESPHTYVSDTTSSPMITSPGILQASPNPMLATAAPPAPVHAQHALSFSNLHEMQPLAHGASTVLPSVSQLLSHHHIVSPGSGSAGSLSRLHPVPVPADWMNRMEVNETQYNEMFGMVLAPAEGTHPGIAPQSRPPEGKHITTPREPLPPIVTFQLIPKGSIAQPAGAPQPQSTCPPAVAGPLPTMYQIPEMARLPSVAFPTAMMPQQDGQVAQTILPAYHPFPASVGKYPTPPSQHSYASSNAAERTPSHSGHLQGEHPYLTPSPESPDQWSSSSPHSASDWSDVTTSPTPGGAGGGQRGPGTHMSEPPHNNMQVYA
Measured composite z-score accompanies every entry in the list below.
Answer field: number only, no words.

Example cases with answers are listed next.
>>> measurement("CCOC(=O)C[C@H]1[C@H](OC(=O)Cc2ccc3c(c2)OCO3)[C@@H](NC(=O)c2ccc(-c3ccccc3)cc2)c2cc(OCCCO)ccc2N1C(=O)c1ccc2ccccc2n1")
0.399
>>> measurement("COC(=O)c1c(CC[C@@H](CO)NC(=O)N2CCC[C@H]2Cn2cc(-c3ccccn3)nn2)oc(C(C)=O)c1C(=O)OC")
-0.357
>>> measurement("O=C1OCCC/C=C\\[C@H]2OC34C=CCN(CCN5CCOCC5)C(=O)[C@H]3N(CCCO)C(=O)[C@@H]4C12 (stereo partly specified)")
-0.793

Bench note: what composite z-score did CCCC=C(CCC)[C@@H](NC(=O)Oc1ccc(F)cc1)c1ccc(C(=O)OC)cc1 show?
1.52

Give the measured composite z-score of O=C1O[C@H](c2ccccc2)[C@H](c2ccccc2)N2[C@H]1[C@@H](C(=O)Nc1nc3ccccc3s1)[C@]1(C(=O)Nc3ccc(C#CC4(O)CCCCCC4)cc31)[C@H]2c1ccc(OCCO)cc1 .
0.642

Given COc1ccc([Si](C)(C)[C@H]2[C@H](CCn3cc([C@H](O)c4ccccc4)nn3)O[C@@]3(C(=O)N(Cc4cccc(N5CCOC5=O)c4)c4ccccc43)[C@@H]2C)cc1 , state its recorded composite z-score.
0.401
